Cited source: PubChem BioAssay (NCATS)

# assay_text: AP1 Signaling Pathway (AID 357);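 further: ME-180 reporter cells stimulated with EGF at its EC50 level; on the % scale 0 is the no-effect control and ±100 the full control effect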
# cond: ME-180 (cervical carcinoma) AP-1-bla reporter, EGF-induced, beta-lactamase ratio, 5 h; at 7.69 µM (top of the series) unless noted
Records with an inconclusive call do not appear.
activity change, negative = inhibition values for the molecules below.
# number only, unit % dropped from output

Exercise: Form field: reported activity change, negative = inhibition of CN(C)Cc1ccc(O)c(CN(C)C)n1
Solution: 1.16

Exercise: Look at this molecule and give its reported activity change, negative = inhibition. c1ccc2c(CC3NCCN3)cccc2c1
Solution: 7.37

Exercise: Which activity change, negative = inhibition value belongs to C/C(CC/C(C)=N/O)=N/O ?
Solution: 4.13

Exercise: Consider the molecule C[N+](C)(N)Cc1nc(-c2ccc(Cl)cc2)no1 and give its measured activity change, negative = inhibition.
Solution: 3.76

Exercise: Request the reported activity change, negative = inhibition associated with CN(C)CN1CSC(=S)N(CN(C)C)C1
Solution: -2.13

---

# assay_text: NFAT Signaling Pathway (AID 444);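 further: carbachol stimulus at about its EC50 of 1 µM final; on the % scale 0 is the no-effect control and ±100 the full control effect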
# cond: Jurkat NFAT-bla M1, carbachol, beta-lactamase ratio, 5 h; at 7.69 µM (top of the series) unless noted
Records with an inconclusive call do not appear. Calls of active or inactive are those of the source. Calls come from the whole dose curve; as a rule, active = well fitted curve in either direction with a large enough effect (not every such curve was filed as active); inconclusive = small, poorly fitted or top-dose-only effect, or another doubt; inactive = flat fitted curve, though single readings scatter.
Below, each entry is listed with its recorded activity change, negative = inhibition.

For orientation, consider the following solved cases.
O=C(N/N=C\c1cccc(O)c1)c1ccncc1; -7.01% (inactive)
C[C@H](CCC(=O)O)[C@H]1CC[C@@H]2[C@@H]3CC[C@H]4C[C@@H](O)CC[C@@]4(C)[C@@H]3C[C@H](O)[C@@]21C; 27.2% (inactive)
CS[C@]12C(=O)C[C@]3(C)[C@@H](CC[C@@]3(O)C(=O)CO)[C@@H]1CCC1=CC(=O)CC[C@]12C; 1.52% (inactive)

Exercise: # query: activity change, negative = inhibition of entry S=C(S)NCCN1CCNCC1
Solution: -3.23% (inactive)

Exercise: Query: activity change, negative = inhibition; subject: CC1(C)CCC(=O)N[C@H]1CC(=O)C[C@H]1NC(=O)CCC1(C)C
Solution: 13% (inactive)

Exercise: What does the record list as activity change, negative = inhibition for CSC(N)=NCCC[C@@H](N)C(=O)O ?
Solution: 6.92% [at 38 µM] (inactive)

Exercise: Item under review: C[C@@](N)(/C=C\c1ccccc1)C(=O)O . Reported activity change, negative = inhibition?
Solution: 12% (inactive)

Exercise: Requested read-out: activity change, negative = inhibition. Entry: CSc1nc2cc(S(=O)(=O)N3CCCCC3)ccc2s1
Solution: -0.492% (inactive)

---

# target_entity: Lysosomal acid glucosylceramidase (Homo sapiens) (UniProt P04062)
# Sequence (P04062 whole entry, looked up): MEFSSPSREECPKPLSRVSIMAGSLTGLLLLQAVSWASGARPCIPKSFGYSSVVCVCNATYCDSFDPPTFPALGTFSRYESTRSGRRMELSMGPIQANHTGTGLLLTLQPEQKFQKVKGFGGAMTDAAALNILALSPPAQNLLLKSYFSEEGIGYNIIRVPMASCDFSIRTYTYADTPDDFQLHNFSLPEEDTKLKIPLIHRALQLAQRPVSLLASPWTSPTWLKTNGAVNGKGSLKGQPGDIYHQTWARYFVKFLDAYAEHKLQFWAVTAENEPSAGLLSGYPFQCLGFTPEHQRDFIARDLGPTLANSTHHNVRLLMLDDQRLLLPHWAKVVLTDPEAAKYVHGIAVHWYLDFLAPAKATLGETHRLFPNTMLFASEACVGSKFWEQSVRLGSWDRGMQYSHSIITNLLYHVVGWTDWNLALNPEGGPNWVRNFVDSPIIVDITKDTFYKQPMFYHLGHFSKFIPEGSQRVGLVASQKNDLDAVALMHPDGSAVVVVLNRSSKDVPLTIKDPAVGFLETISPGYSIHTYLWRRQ
# assay_text: Glucocerebrosidase-p2 (AID 348); further: potency means the concentration at half of the fitted maximal effect
# cond: purified GBA, blue fluorogenic substrate, 40 min
Calls of active or inactive are those of the source. Rule as the data show it: active = potency below about 10 µM; inactive = the rest.
Pick one and only one: TRUE (active), FALSE (inactive)

Exercise: Please let me know the test result on file for c1cc(CNCCN2CCNCC2)ccn1 .
Solution: FALSE

Exercise: Test call, this compound: CC(C)(N=NC(C)(C)C1=NCCN1)C1=NCCN1
Solution: FALSE

Exercise: Hey, what did the test say about O=C(O)c1cc2c(cc1S(=O)(=O)O)[C@H]1[C@@H]([C@H]3[C@H]2[C@@]2(Cl)C(Cl)=C(Cl)[C@]3(Cl)C2(Cl)Cl)[C@]2(Cl)C(Cl)=C(Cl)[C@@]1(Cl)C2(Cl)Cl ?
Solution: FALSE
